System: DeltatarO mutant
assay summary: S. aureus survival, RN4220 and DeltatarO strains – OD600, teichoic acid synthesis inhibitors, primary screen (AID 463173)
run conditions: S. aureus RN4220 wild type/DeltatarO growth, OD600, 18 h, active compounds read low, screened at 18.75 µg/mL (by protocol)
Hit rate of the full screen: of about 52,000 compounds, about 4,300 (8.3%) were called active. What follows is part of a selection rich in actives, with near analogues and random picks from the rest.
Each item that follows carries a reported survival.
Answer format: numeric, % implied, no suffix.

Consider the worked cases shown below.
Cc1cc(C)cc(NC(=O)c2cc(S(=O)(=O)NCCC3=CCCCC3)ccc2F)c1    67
CCN(C(=O)C1CCCN(c2ncnc3c2nc2n3CCCCC2)C1)c1cccc(C)c1 (configuration not stated)    75
N#Cc1ccc(-c2cccs2)nc1SCc1ccc(Br)cc1    74

// survival lookup, compound = Cc1ccc(C)c(NC(=O)c2cc(S(=O)(=O)NCCC3=CCCCC3)ccc2F)c1 , result: 52

// survival lookup, compound = Cn1c(=O)n(CCc2ccccc2)c(=O)c2c1nc1n2CCN1c1ccc(Cl)cc1 , result: 76

// survival lookup, compound = Cc1ccc(-n2ncc3c(=O)n(Cc4cccc(Cl)c4)cnc32)cc1C , result: 91

// survival lookup, compound = Clc1cccc(-n2ncc3c(N4CCC(Cc5ccccc5)CC4)ncnc32)c1 , result: 83

// survival lookup, compound = O=c1c2oc3ccccc3c2n(Cc2ccc(F)cc2)c(=O)n1Cc1ccco1 , result: 71

// survival lookup, compound = Cc1ccc(C)c(NC(=O)c2cc(S(=O)(=O)NCc3ccccc3)ccc2F)c1 , result: 71

----------
Test system: DeltatarO mutant
assay summary: S. aureus survival, RN4220 and DeltatarO strains – OD600, teichoic acid synthesis inhibitors, primary screen (AID 463173)
run conditions: S. aureus RN4220 wild type/DeltatarO growth, OD600, 18 h, active compounds read low, screened at 18.75 µg/mL (by protocol)
In all, about 52,000 compounds went through this assay and about 4,300 (8.3%) were called active. Shown is part of a subset that was picked to be rich in actives.
Each item that follows carries a reported survival.
Answer format: numeric, % implied, no suffix.

Consider the worked cases shown below.
COc1ccc(-c2onc(C)c2C)cc1S(=O)(=O)N1CCN(c2cc(C)ccc2C)CC1    81
COc1ccc(Br)cc1CNC(=O)CCSCc1ccc(Cl)cc1    73
C=CCc1c(C)[nH]c2c(OC)cccc2c1=S    82
CCOC(=O)c1c(C)oc2ncnc(NCCCN3CCN(c4cc(C)ccc4C)CC3)c12    101

Shifting focus to the molecule that follows.
// survival lookup, molecule = CCS(=O)(=O)N1CC(=O)N(c2ccc(C)c(C)c2)C(C)(C(=O)NC2CCCCC2)C1 (stereo not given) , result: 87

----------
Tested on: DeltatarO mutant
assay summary: S. aureus survival, RN4220 and DeltatarO strains – OD600, teichoic acid synthesis inhibitors, primary screen (AID 463173)
run conditions: S. aureus RN4220 wild type/DeltatarO growth, OD600, 18 h, screened at 18.75 µg/mL (by protocol)
In all, about 52,000 compounds went through this assay and about 4,300 (8.3%) were called active. Cut-off read from the data, not from the text of the source: active = survival mostly below about 52% (no sharp cut-off); inactive = mostly above about 56%. Many of the other results were omitted from the sample, so actives are more common in it than they were.
Choose the fitting class; nothing outside active, inactive is accepted.

Observe how each entry below is paired with its result.
CC(=O)Nc1ccccc1OCc1cc(=O)n2c3c(sc2n1)CCCC3    inactive
CCn1c(SCC(=O)Nc2ccccc2C(=O)OC)nc2ccsc2c1=O    inactive

[Q] Which result was noted for this molecule in the test: O=C(C1CC1)N1CCN(c2nc3ccc(F)cc3s2)CC1
[A] inactive

[Q] Which result was noted for this molecule in the test: CN1C(=O)c2cccc3c(S(=O)(=O)Nc4cccc(C(=O)O)c4)ccc1c23
[A] inactive

[Q] Which result was noted for this molecule in the test: O=C(NCc1ccco1)C1CCC(N2C(=O)c3ccccc3C2=O)CC1 (stereo not drawn)
[A] inactive
